# Study target: T1, ARM repeat domain of human β-catenin (residues 134–671) (human, UniProt P35222 134-671)
# T1 construct: β-catenin, human, ARM repeat domain, residues 134–671; Plasmid was a gift from W.I. Weis; source: E. coli C41, purified (glutathione-Sepharose 4B, thrombin cleavage on resin, Mono-Q)
# T1 sequence (looked up): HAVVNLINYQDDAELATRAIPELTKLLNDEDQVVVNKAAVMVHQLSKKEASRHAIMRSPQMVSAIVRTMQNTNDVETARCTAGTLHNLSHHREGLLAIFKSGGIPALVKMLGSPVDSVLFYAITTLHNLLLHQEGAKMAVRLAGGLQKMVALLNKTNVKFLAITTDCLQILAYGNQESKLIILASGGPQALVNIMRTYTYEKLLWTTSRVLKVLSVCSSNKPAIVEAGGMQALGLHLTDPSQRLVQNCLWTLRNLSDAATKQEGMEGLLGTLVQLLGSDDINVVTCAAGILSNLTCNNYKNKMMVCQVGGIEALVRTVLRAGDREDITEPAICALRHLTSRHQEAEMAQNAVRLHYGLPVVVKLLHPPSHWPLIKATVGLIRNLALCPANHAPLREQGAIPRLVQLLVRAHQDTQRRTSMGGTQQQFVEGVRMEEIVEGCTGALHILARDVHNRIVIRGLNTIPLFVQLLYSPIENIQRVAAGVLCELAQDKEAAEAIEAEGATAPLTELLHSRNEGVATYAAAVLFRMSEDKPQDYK
# Procedure text: stopped-flow fluorescence kinetics (association); 10 nM fluorescein-labelled TCF7L2 mixed 1:1 with 100–1000 nM unlabelled β-catenin, pseudo-first-order; PBS, 1 mM DTT, 15 °C; kon from the linear fit of kobs against β-catenin concentration
# Test settings: both partners purified
No end group written: not given here.
Measure: kon (M⁻¹ s⁻¹)
Give the value, in units of M⁻¹ s⁻¹, as a plain number.

Q. Tell me the measured kon of TCF7L2 (1–54) S31C E24A E29A, fluorescein-labelled (domain or fragment, UniProt Q9NQB0 1-54, looked up, One extra serine is left behind after thrombin cleavage of the tag; also called double mutant; source: E. coli C41, purified (Ni-NTA, thrombin cleavage, Superdex 75), labelled with fluorescein maleimide) MPQLNGGGGDDLGANDELISFKDAGEQEAKC(fluorescein maleimide)SENSSAERDLADVKSSLVNESET , please.
A. 6.13e+07

Q. Tell me the measured kon of TCF7L2 (1–54) S31C E38A, fluorescein-labelled (domain or fragment, UniProt Q9NQB0 1-54, looked up, One extra serine is left behind after thrombin cleavage of the tag; source: E. coli C41, purified (Ni-NTA, thrombin cleavage, Superdex 75), labelled with fluorescein maleimide) MPQLNGGGGDDLGANDELISFKDEGEQEEKC(fluorescein maleimide)SENSSAARDLADVKSSLVNESET , please.
A. 6.2e+07

Q. Tell me the measured kon of TCF7L2 (1–54) S31C I19A, fluorescein-labelled (domain or fragment, UniProt Q9NQB0 1-54, looked up, One extra serine is left behind after thrombin cleavage of the tag; also called TCF7L2 I19A; source: E. coli C41, purified (Ni-NTA, thrombin cleavage, Superdex 75), labelled with fluorescein maleimide) MPQLNGGGGDDLGANDELASFKDEGEQEEKC(fluorescein maleimide)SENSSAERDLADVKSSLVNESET , please.
A. 7.04e+07

Q. Tell me the measured kon of TCF7L2 (1–54) S31C D23A E24A E26A E28A E29A (5X), fluorescein-labelled (domain or fragment, UniProt Q9NQB0 1-54, looked up, One extra serine is left behind after thrombin cleavage of the tag; also called quintuple mutant; 5X variant; source: E. coli C41, purified (Ni-NTA, thrombin cleavage, Superdex 75), labelled with fluorescein maleimide) MPQLNGGGGDDLGANDELISFKAAGAQAAKC(fluorescein maleimide)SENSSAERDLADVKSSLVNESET , please.
A. 4.26e+07

Q. Tell me the measured kon of TCF7L2 (1–54) S31C F21A, fluorescein-labelled (domain or fragment, UniProt Q9NQB0 1-54, looked up, One extra serine is left behind after thrombin cleavage of the tag; source: E. coli C41, purified (Ni-NTA, thrombin cleavage, Superdex 75), labelled with fluorescein maleimide) MPQLNGGGGDDLGANDELISAKDEGEQEEKC(fluorescein maleimide)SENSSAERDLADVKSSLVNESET , please.
A. 4.82e+07

Q. Tell me the measured kon of TCF7L2 (1–54) S31C K45A, fluorescein-labelled (domain or fragment, UniProt Q9NQB0 1-54, looked up, One extra serine is left behind after thrombin cleavage of the tag; source: E. coli C41, purified (Ni-NTA, thrombin cleavage, Superdex 75), labelled with fluorescein maleimide) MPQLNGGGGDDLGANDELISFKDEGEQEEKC(fluorescein maleimide)SENSSAERDLADVASSLVNESET , please.
A. 1.03e+08

Q. Tell me the measured kon of TCF7L2 (1–54) S31C N15A, fluorescein-labelled (domain or fragment, UniProt Q9NQB0 1-54, looked up, One extra serine is left behind after thrombin cleavage of the tag; source: E. coli C41, purified (Ni-NTA, thrombin cleavage, Superdex 75), labelled with fluorescein maleimide) MPQLNGGGGDDLGAADELISFKDEGEQEEKC(fluorescein maleimide)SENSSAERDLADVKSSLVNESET , please.
A. 6.25e+07
